# assayedTarget: full-length SHP2 (His6-tagged SHP2(2-527)) (Homo sapiens)
# Construct: His6-tagged SHP2(2-527); His6; made in house; host or cells: E. coli
# procedureDetails: SHP2 Enzymatic Assay (fluorescence intensity kinetic assay, DiFMUP hydrolysis)
# Assay type: biochemical
# testConditions: full-length SHP2 with 1 μM activating peptide, 50 μM DiFMUP; single assay or mean of multiple assays; read-out: Biological Example 1 IC50
pIC50: −log10 of the molar value.

compound	pIC50
CC1(N)CCN(c2cnc3cc(-c4cccc(Cl)c4Cl)ccc3n2)CC1	6.15
Nc1nccc(Sc2ccc3nc(N4CCC5(CC4)Cc4ncc(F)cc4[C@H]5N)cnc3n2)c1Cl	7.30
CC1(CN)CCN(c2cnc3nc(Sc4ccnc(N)c4Cl)ccc3n2)CC1	7.21
Nc1nccc(Sc2ccc3nc(N4CCC5(CC4)Cc4ccccc4[C@H]5N)cnc3n2)c1Cl	7.55
Nc1nccc(Sc2ccc3nc(N4[C@H]5CC[C@H]4CC(N)C5)cnc3n2)c1Cl (stereo partly drawn)	7.15
COc1cnc2c(c1)[C@@H](N)C1(CCN(c3cnc4nc(Sc5ccnc(N)c5Cl)ccc4n3)CC1)C2	7.22

###

# assayedTarget: full-length SHP2 (His6-tagged SHP2(2-527)) (Homo sapiens, UniProt Q06124)
# Construct: His6-tagged SHP2(2-527); His6; made in house; host or cells: E. coli
# Sequence (Q06124 2-527): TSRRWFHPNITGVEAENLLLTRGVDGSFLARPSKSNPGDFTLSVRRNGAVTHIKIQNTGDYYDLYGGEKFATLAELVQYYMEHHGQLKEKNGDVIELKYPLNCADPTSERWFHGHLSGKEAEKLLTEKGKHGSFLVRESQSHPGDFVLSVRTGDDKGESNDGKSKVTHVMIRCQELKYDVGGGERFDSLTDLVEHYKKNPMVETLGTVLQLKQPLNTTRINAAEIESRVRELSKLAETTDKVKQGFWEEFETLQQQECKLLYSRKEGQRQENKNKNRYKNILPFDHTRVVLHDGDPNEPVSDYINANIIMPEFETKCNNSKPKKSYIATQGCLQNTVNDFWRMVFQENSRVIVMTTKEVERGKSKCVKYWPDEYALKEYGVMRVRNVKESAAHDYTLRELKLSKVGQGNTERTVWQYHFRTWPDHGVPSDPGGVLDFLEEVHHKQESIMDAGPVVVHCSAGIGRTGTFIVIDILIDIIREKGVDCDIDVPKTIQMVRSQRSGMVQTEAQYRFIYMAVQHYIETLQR
# procedureDetails: SHP2 Enzymatic Assay (fluorescence intensity kinetic assay, DiFMUP hydrolysis)
# Assay type: biochemical
pIC50: −log10 of the molar value. Where a name gives a salt, the structure may show the parent alone.
If the reported pIC50 equals or exceeds 7, assign T. If not, assign F.

compound	label
CC1(N)CCN(c2cnc3nc(-c4cccc(Cl)c4C(F)(F)F)ccc3n2)CC1	F
Cc1nccc(Sc2ccc3nc(N4CCCC(C)(N)CC4)cnc3n2)c1Cl (centres unmarked)	T
C[C@@H]1OCC2(CCN(c3ccc4nc(Sc5cccc(Cl)c5Cl)cnc4n3)CC2)[C@@H]1N	F
CC(C)(O)CC1(N)CCN(c2cnc3nc(Sc4ccnc(N)c4Cl)ccc3n2)CC1	T
Cc1nccc(Sc2ccc3nc(N4[C@H]5CC[C@H]4CC(N)C5)cnc3n2)c1Cl (some centres unmarked) [Example 67, dihydrochloride]	T
NCC1CN(c2cnc3nc(Sc4cccc(Cl)c4Cl)ccc3n2)CCO1 (centres unmarked)	F
Nc1nccc(Sc2ccc3nc(N4CC5CNCC(C4)O5)cnc3n2)c1Cl	F
Nc1nccc(Sc2ccc3nc(N4CC5COCC(C4)N5)cnc3n2)c1Cl	F
Nc1nccc(Sc2ccc3nc(N4CCC5(CC4)Cc4ncc(F)cc4[C@@H]5N)cnc3n2)c1Cl (single isomer, unassigned)	T
N[C@@H]1c2cccnc2CC12CCN(c1cnc3nc(Sc4cccnc4C(F)(F)F)ccc3n1)CC2	T
C[C@@H]1OCC2(CCN(c3cnc4nc(-c5cccc(Cl)c5Cl)ccc4n3)CC2)[C@@H]1N	F
CCCC1(N)CCN(c2cnc3nc(Sc4ccnc(N)c4Cl)ccc3n2)CC1	F
COc1nccc(-c2ccc3nc(N4CCC5(CC4)CO[C@@H](C)[C@H]5N)cnc3n2)c1Cl	F
CC1(N)CCN(c2ccc3nc(Sc4cccc(Cl)c4Cl)cnc3n2)CC1	F
Cc1nccc(Sc2ccc3nc(N4CCC(N)(CO)CC4)cnc3n2)c1Cl	T

###

Listed here: items and their measured log10 of IC50.
# assayedTarget: full-length SHP2 (His6-tagged SHP2(2-527)) (Homo sapiens, UniProt Q06124)
# Construct: His6-tagged SHP2(2-527); His6; made in house; host or cells: E. coli
# procedureDetails: SHP2 Enzymatic Assay (fluorescence intensity kinetic assay, DiFMUP hydrolysis)
# Type: biochemical
quantityKind: log10 of IC50 (log10 of the value in nM)

compound	log10 of IC50
CC1(N)CCN(c2cnc3nc(Sc4ccnc5c4CCN5)ccc3n2)CC1	2.75
Cc1nccc(Sc2ccc3nc(N4CCC[C@](C)(N)CC4)cnc3n2)c1Cl (single isomer, unassigned)	1.88
Nc1nccc(Sc2ccc3nc(N4CCC5(CC4)Cc4ncccc4[C@@H]5N)cnc3n2)c1Cl	1.70
C[C@@H]1OCC2(CCN(c3cnc4nc(Sc5ncnc(N)c5Cl)ccc4n3)CC2)[C@@H]1N	2.93
Nc1nccc(Sc2ccc3nc(N4[C@@H]5CC[C@H]4[C@@H](N)C5)cnc3n2)c1Cl	2.05
C[C@@]1(N)CCN(c2cnc3nc(-c4cccc(Cl)c4Cl)ccc3n2)C1	2.62
Cc1cccc2c1CC1(CCN(c3cnc4nc(Sc5ccnc(N)c5Cl)ccc4n3)CC1)[C@@H]2N	1.48
Nc1nccc(Sc2ccc3nc(N4CCC5(CC4)c4ccccc4[C@H]5N)cnc3n2)c1Cl	4.20
Nc1nccc(Sc2ccc3nc(N4CCC5(CC4)Cc4cc(Cl)ccc4[C@@H]5N)cnc3n2)c1Cl	1.79
CC(C)(N)C1CCN(c2cnc3nc(Sc4ccnc(N)c4Cl)ccc3n2)CC1	2.39
COc1nccc(Sc2ccc3nc(N4CCC(C)(N)CC4)cnc3n2)c1Cl	2.56
C[C@]1(N)CCCN(c2cnc3nc(Sc4ccnc(N)c4Cl)ccc3n2)CC1 (single isomer, unassigned)	1.48
COCCC1(N)CCN(c2cnc3nc(Sc4ccnc(N)c4Cl)ccc3n2)CC1	1.90
C[C@@H]1OCC2(CCN(c3cnc4nc(Sc5ccc(N)nc5C(F)(F)F)ccc4n3)CC2)[C@@H]1N	2.04
CC1(CN)CCN(c2cnc3cc(-c4cccc(Cl)c4Cl)ccc3n2)CC1	3.40
Nc1nccc(Sc2ccc3nc(N4CCC5(CC4)c4ccccc4[C@@H]5N)cnc3n2)c1Cl	3.60
NCC1(F)CCN(c2cnc3nc(Sc4ccnc(N)c4Cl)ccc3n2)CC1	1.73
C[C@@H]1OCC2(CCN(c3cnc4nc(Sc5cc(N)nc6[nH]ccc56)ccc4n3)CC2)[C@@H]1N	1.88
CC1(N)CCN(c2cnc3nc(Nc4cccc(Cl)c4Cl)ccc3n2)CC1	2.94
Nc1nccc(Sc2ccc3nc(N4CC5CCCC(N)C5C4)cnc3n2)c1Cl (stereo not drawn)	2.20
Cc1ccc2c(c1)[C@H](N)C1(CCN(c3cnc4nc(Sc5ccnc(N)c5Cl)ccc4n3)CC1)C2	1.90
CC1(N)CCN(c2cnc3nc(-c4cccc(Cl)c4F)ccc3n2)CC1	2.46
C[C@@H]1OCC2(CCN(c3cnc4nc(Sc5ccnc(N6CC[C@@H](CO)C6)c5Cl)ccc4n3)CC2)[C@@H]1N	2.00
CC1CCN(c2cnc3nc(Sc4ccnc(N)c4Cl)ccc3n2)CC1	3.25
C[C@@H]1OCC2(CCN(c3cnc4nc(Sc5ccnc(N6CCC(O)C6)c5Cl)ccc4n3)CC2)[C@@H]1N (stereo partly drawn)	1.90
CC1(N)CCN(c2cnc3nc(Sc4nccn5nccc45)ccc3n2)CC1	2.64
C[C@@H]1OCC2(CCN(c3cnc4nc(Sc5ccnc(N)c5Cl)ccc4n3)CC2)[C@@H]1N	1.92
N[C@@H]1c2cccnc2CC12CCN(c1cnc3nc(Sc4ccnc(N5CCC(O)CC5)c4Cl)ccc3n1)CC2	1.60
Nc1nccc(Sc2ccc3nc(N4CCC(N)CC4)cnc3n2)c1Cl	1.86
C[C@@H]1OCC2(CCN(c3cnc4nc(Sc5ccnc(C(F)(F)F)c5)ccc4n3)CC2)[C@@H]1N	3.56

###

# System: ERK1/2 (Thr202/Tyr204) phosphorylation in KYSE520 cells
# procedureDetails: Cellular Phospho-p44/42 MAPK (Erk 1/2) (Thr202/Tyr204) Assay (In-Cell Western)
# Type: cell-based
# testConditions: Homo sapiens, KYSE-520, 1 h, read-out: Biological Example 2 IC50 (nM)
Where a name gives a salt, the structure may show the parent alone.
Define the label as t when IC50 is strictly less than 100 nM and as f in all remaining cases.

compound	label
Nc1nccc(Sc2ccc3nc(N4CCC5(CC4)CC(F)(F)C[C@H]5N)cnc3n2)c1Cl (stereo in doubt)	t
C[C@@H]1OCC2(CCN(c3cnc4nc(Sc5ccnc(N6CCC[C@H]6CO)c5Cl)ccc4n3)CC2)[C@@H]1N	f
N[C@@H]1c2cccnc2CC12CCN(c1cnc3nc(Sc4cccnc4C(F)(F)F)ccc3n1)CC2	t
Nc1nccc(Sc2ccc3nc(N4CC5CC(C4)N5)cnc3n2)c1Cl	f
Cc1nccc(Sc2ccc3nc(N4[C@H]5CC[C@H]4CC(N)C5)cnc3n2)c1Cl (some centres unmarked) [Example 67, dihydrochloride]	t
N[C@@H]1c2ccccc2CC12CCN(c1cnc3nc(Sc4ccnc5c4C(F)(F)C(=O)N5)ccc3n1)CC2	t
N[C@@H]1c2cccnc2CC12CCN(c1cnc3nc(Sc4ccnc(N5CC[C@H](CO)C5)c4Cl)ccc3n1)CC2	t
Cc1ccc2c(c1)[C@@H](N)C1(CCN(c3cnc4nc(Sc5ccnc(N)c5Cl)ccc4n3)CC1)C2	t
Nc1nccc(Sc2ccc3nc(N4CCC5(CC4)Cc4ncccc4[C@H]5N)cnc3n2)c1Cl	t
C[C@@H]1OCC2(CCN(c3cnc4nc(Sc5cccc(Cl)c5Cl)ccc4n3)CC2)[C@@H]1N	f
Cc1nccc(Sc2ccc3nc(N4CCC(N)(CO)CC4)cnc3n2)c1Cl	t
C[C@@H]1OCC2(CCN(c3cnc4nc(Sc5ccnc(N6CCCC6)c5Cl)ccc4n3)CC2)[C@@H]1N	f
C[C@@H]1OCC2(CCN(c3cnc4nc(Sc5ccnc(NCCO)c5Cl)ccc4n3)CC2)[C@@H]1N	f
CC(C)(C#N)CNc1nccc(Sc2ccc3nc(N4CCC(C)(N)CC4)cnc3n2)c1Cl	f
Nc1nccc(Sc2ccc3nc(N4CCC5(CC4)Cc4ncc(F)cc4[C@H]5N)cnc3n2)c1Cl	t
C[C@@H]1OCC2(CCN(c3cnc4nc(Sc5ccnc(N6CCC(O)CC6)c5Cl)ccc4n3)CC2)[C@@H]1N	t

Recorded values, source patent US12187721B2.
